- targetUnderTest: Tyk2/JAK2 (heterodimeric complex) (Homo sapiens (Human))
- Sequence (P29597 whole entry, other chains not shown): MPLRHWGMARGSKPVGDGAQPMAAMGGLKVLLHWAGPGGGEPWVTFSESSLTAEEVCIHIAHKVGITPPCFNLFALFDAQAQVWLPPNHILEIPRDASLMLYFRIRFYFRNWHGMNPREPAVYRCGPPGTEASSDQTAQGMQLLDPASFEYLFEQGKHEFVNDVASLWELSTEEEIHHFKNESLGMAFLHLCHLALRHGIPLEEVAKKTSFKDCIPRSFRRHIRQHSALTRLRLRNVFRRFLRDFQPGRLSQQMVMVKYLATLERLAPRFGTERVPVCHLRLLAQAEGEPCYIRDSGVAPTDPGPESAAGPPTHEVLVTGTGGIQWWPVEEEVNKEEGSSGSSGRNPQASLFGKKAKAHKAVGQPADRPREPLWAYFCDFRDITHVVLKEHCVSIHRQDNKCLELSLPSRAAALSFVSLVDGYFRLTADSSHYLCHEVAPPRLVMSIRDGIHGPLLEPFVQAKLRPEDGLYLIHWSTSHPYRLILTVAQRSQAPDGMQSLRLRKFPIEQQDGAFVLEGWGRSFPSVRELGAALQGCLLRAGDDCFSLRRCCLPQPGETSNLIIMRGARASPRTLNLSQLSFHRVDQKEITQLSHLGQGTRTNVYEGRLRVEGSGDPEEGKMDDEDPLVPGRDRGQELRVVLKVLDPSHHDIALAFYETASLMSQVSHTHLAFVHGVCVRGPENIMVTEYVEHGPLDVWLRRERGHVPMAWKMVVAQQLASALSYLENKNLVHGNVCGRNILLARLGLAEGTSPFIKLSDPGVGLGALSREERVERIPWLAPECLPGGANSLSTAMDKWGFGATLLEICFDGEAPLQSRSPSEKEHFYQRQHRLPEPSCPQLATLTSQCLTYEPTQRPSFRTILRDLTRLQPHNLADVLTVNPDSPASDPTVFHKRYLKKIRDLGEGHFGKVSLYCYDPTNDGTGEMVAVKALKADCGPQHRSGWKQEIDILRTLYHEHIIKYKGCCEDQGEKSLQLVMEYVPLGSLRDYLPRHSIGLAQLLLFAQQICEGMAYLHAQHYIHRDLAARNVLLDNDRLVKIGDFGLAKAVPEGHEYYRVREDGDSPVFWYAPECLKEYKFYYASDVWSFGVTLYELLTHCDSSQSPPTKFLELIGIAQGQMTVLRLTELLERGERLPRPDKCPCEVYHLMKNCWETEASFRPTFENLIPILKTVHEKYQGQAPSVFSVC
- measurementNotes: IL-12 Induced pSTAT4 in Human PBMC
- studyConditions: 1.7 ng/mL IL-12
- Description: The IL-12 Induced pSTAT4 assay evaluates the inhibition of IL-12 induced STAT4 phophorylation mediated by Tyk2/JAK2 (heterodimeric complex).
pIC50: −log10 of the molar value.
measuredAttribute: pIC50

Here is how some compounds turned out for pIC50.
| structureNotation | pIC50 |
| --- | --- |
| CNc1cc(Nc2cccc(N3CCOC3=O)n2)nc2c(C(=O)N[C@H]3C[C@H]3F)cnn12 | > 7.00 |
| CNc1cc(Nc2cccn([C@H]3CCCOC3)c2=O)nc2c(C(=O)N[C@@H]3CC[C@H]3O)cnn12 | > 7.00 |
| CNc1cc(Nc2cccn(-c3nc(C)co3)c2=O)nc2c(C(=O)N[C@@H]3CC[C@@H]3O)cnn12 | > 7.00 |

Consider now this further compound.
Fill in the blank: the reported pIC50 of CNc1cc(Nc2cccn(-c3ccc(F)cn3)c2=O)nc2c(C(=O)NC3CCC3)cnn12 is ____. > 7.00
